Attribution: paper PMC3633906

Target: RGS4(WT) (Rattus norvegicus)
Construct: fused to the N-terminus of an RGS4 construct containing amino acids 51–205; 10× His tag (N, cleaved yes); made in house; host or cells: E. coli BL21-DE3
Sequence (P49799 51-205): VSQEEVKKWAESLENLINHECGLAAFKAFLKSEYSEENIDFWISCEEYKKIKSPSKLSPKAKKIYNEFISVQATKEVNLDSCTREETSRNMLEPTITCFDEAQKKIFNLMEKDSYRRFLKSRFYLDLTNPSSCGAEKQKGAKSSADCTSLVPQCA
Test: Malachite green steady-state GAP assay, RGS4(WT)
Type: biochemical
Conditions: malachite green assay, 200 nM RGS4, concentration-response; read-out: IC50 against RGS4(WT)
Counter-ions that a name gives are not always drawn.
readout: IC50 (µM)
All answers are understood in µM, so give the number only.

(Q) Tell us which IC50 value is on record for C[n+]1cc2c3c(ccc2c2ccc4cc5c(cc4c21)OCO5)OCO3 [UI-5, sanguinarium sulfate]
(A) 126

* * *

Target: RGS4(Δ7) mutant (Rattus norvegicus, UniProt P49799, C132A/C148A/C183A/C197A/C204A/C71A/C95A)
Sequence (P49799 51-205 C71A/C95A/C132A/C148A/C183A/C197A/C204A limits assumed): as the sequence (P49799 51-205) above, with C21A, C45A, C82A, C98A, C133A, C147A, C154A counted along it
Assay: Malachite green steady-state GAP assay, cysteine-null RGS4(Δ7) counter screen
Type: biochemical
Conditions: malachite green assay, RGS4(Δ7) mutant, concentration-response; read-out: IC50 against RGS4(Δ7)
Where a name gives a salt, the structure may show the parent alone.
readout: pIC50
Recall that pIC50 is obtained by taking minus log10 of the concentration measured in molar.

(Q) Tell us which pIC50 value is on record for C[n+]1cc2c3c(ccc2c2ccc4cc5c(cc4c21)OCO5)OCO3 [UI-5, sanguinarium sulfate]
(A) 3.34

(Q) Tell us which pIC50 value is on record for CC(=O)Oc1c2c(c(CC=C(C)C)c3c1C(=O)C1=C[C@@H]4CC5C(C)(C)OC(C/C=C(\C)C(=O)O)(C4=O)[C@@]15O3)OC(C)(CCC=C(C)C)C=C2 (some centres unmarked) [UI-2034, acetyl-isogambogic acid]
(A) 3.74
